Test system: male C57BL/6N mouse
protocolDescription: Effect on glucose tolerance of normal mouse (oral glucose loading)
Type: in vivo
measurementSetup: 2 h, 3 mg/kg oral, 30 min before glucose 2 g/kg, AUC0-120, 0.5% MC = 100%, NVP DPP728 10 mg/kg = 0%, lower = better, read-out: Improvement degree of glucose tolerance
Structures can show the parent of a compound that is named as a salt.
Field: response vs control in vivo at 3 mg/kg. Provide a value for each of the compounds that follow.
Give bare numbers, in %.

CC#CCn1c(N2CCNCC2)nc2c1c(=O)n(C)c(=O)n2C(C)C [Example 270, trifluoroacetate]    7.3
Cn1c(=O)[nH]c(=O)c2c1nc(N1CCNCC1)n2-c1ccccc1Cl [Example 156, trifluoroacetate]    0.9
NC(=O)Cn1c(=O)[nH]c(=O)c2c1nc(N1CCNCC1)n2-c1ccccc1Cl [Example 194, trifluoroacetate]    9.9
CC#CCn1c(N2CCNCC2)nc2c1c(=O)n(C)c(=O)n2CC1CCCO1 (centres unmarked) [Example 226, trifluoroacetate]    -5.2

Asked: Please give the measured response vs control in vivo at 3 mg/kg for this compound: CC#CCn1c(N2CCNCC2)nc2c1c(=O)n(C)c(=O)n2CC(=O)C(C)(C)C [Example 274, trifluoroacetate]
Given back: 1.9

Hello, the source for this data is patent US7074798B2, in case you need it.
